System: 624824-186-R-J3-PDC multicell spheroids, viability
methodDescription: Anticancer human tumor 624824-186-R-J3-PDC patient-derived colon adenocarcinoma cell line growth inhibition [PI3K]
conditionNotes: second compound 0.1 µM; first compound 10 µM; hits give low values
endpointName: viability, T/C (%)
Give a bare numeral; the unit % is implied.

### Prompt Which measured viability, T/C value corresponds to CCCS(=O)(=O)Nc1ccc(F)c(C(=O)c2c[nH]c3ncc(-c4ccc(Cl)cc4)cc23)c1F + CC(Nc1ncnc2nc[nH]c12)c1cc2cccc(Cl)c2c(=O)n1-c1ccccc1 ?
### Response 6.92

### Prompt Given the compound C=CC(=O)N1CCN(c2nc(=O)n(-c3c(C)ccnc3C(C)C)c3nc(-c4c(O)cccc4F)c(F)cc23)C(C)C1 (stereo unspecified) + COc1c(OCCCN2CCOCC2)ccc2c3n(c(=NC(=O)c4cnc(N)nc4)nc12)CCN3 , what is its reported viability, T/C?
### Response 72.7

### Prompt Could you share which viability, T/C value was measured for CNC(=O)c1ccc(N2C(=S)N(c3ccc(C#N)c(C(F)(F)F)c3)C(=O)C2(C)C)cc1F + CC(Nc1ncnc2nc[nH]c12)c1cc2cccc(Cl)c2c(=O)n1-c1ccccc1 ?
### Response 116

### Prompt For the compound shown here, C#Cc1c(F)ccc2cc(O)cc(-c3ncc4c(N5CC6CCC(C5)N6)nc(OCC56CCCN5CC(F)C6)nc4c3F)c12 (stereo unspecified) + Cc1nc(NC(=O)N2CCCC2C(N)=O)sc1-c1ccnc(C(C)(C)C(F)(F)F)c1 , give the reported viability, T/C.
### Response 102

### Prompt Would you kindly share the measured viability, T/C for Cn1nccc1Nc1nccc(-c2ccn(C(CO)c3ccc(Cl)c(F)c3)c(=O)c2)n1 (stereo unspecified) + CC(Nc1ncnc2nc[nH]c12)c1cc2cccc(Cl)c2c(=O)n1-c1ccccc1 ?
### Response 57.3

### Prompt Given the entry CCCS(=O)(=O)Nc1ccc(F)c(C(=O)c2c[nH]c3ncc(-c4ccc(Cl)cc4)cc23)c1F + CC(Nc1ccc2c(c1)OCCn1cc(N3C(=O)OCC3C(F)F)nc1-2)C(N)=O , report its measured viability, T/C.
### Response 14.1

### Prompt Look up viability, T/C: Cn1nccc1Nc1nccc(-c2ccn(C(CO)c3ccc(Cl)c(F)c3)c(=O)c2)n1 (stereo unspecified) + COc1c(OCCCN2CCOCC2)ccc2c3n(c(=NC(=O)c4cnc(N)nc4)nc12)CCN3
### Response 9.81

### Prompt # lookup: viability, T/C of C#Cc1c(F)ccc2cc(O)cc(-c3ncc4c(N5CC6CCC(C5)N6)nc(OCC56CCCN5CC(F)C6)nc4c3F)c12 (stereo unspecified) + CC(Nc1ccc2c(c1)OCCn1cc(N3C(=O)OCC3C(F)F)nc1-2)C(N)=O
### Response 103

### Prompt What viability, T/C value was documented for this compound, CC(C)NCC(C(=O)N1CCN(c2ncnc3c2C(C)CC3O)CC1)c1ccc(Cl)cc1 (stereo unspecified) + COc1c(OCCCN2CCOCC2)ccc2c3n(c(=NC(=O)c4cnc(N)nc4)nc12)CCN3 ?
### Response 41.4

### Prompt Requested read-out: viability, T/C. Entry: Cn1ncc(Cl)c1-c1cc(C(=O)NC(CN)Cc2cccc(F)c2)sc1Cl (stereo unspecified) + CC(Nc1ccc2c(c1)OCCn1cc(N3C(=O)OCC3C(F)F)nc1-2)C(N)=O
### Response 79.2

### Prompt Quick one: viability, T/C for C=CC(=O)N1CCN(c2nc(=O)n(-c3c(C)ccnc3C(C)C)c3nc(-c4c(O)cccc4F)c(F)cc23)C(C)C1 (stereo unspecified) + CC(Nc1ncnc2nc[nH]c12)c1cc2cccc(Cl)c2c(=O)n1-c1ccccc1 ?
### Response 119

* * *

Tested on: 624824-186-R-J3-PDC multicell spheroids, viability
methodDescription: Anticancer human tumor 624824-186-R-J3-PDC cell line growth inhibition [PI3K];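 also: luminescent signal used as a stand-in for spheroid viability; spheroids exposed to agents for seven days before luminescence read; percent viability relative to DMSO vehicle control wells taken as 100%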
conditionNotes: second compound 0.01 µM; first compound 0.0316 µM; hits give low values
endpointName: viability, T/C (%)
Quick note: give the figure in %, leave out the unit.

### Prompt For CC(C)n1nc(-c2ccc3oc(N)nc3c2)c2c(N)ncnc21 + CC(Nc1ccc2c(c1)OCCn1cc(N3C(=O)OCC3C(F)F)nc1-2)C(N)=O , what is its reported viability, T/C?
### Response 93.6

### Prompt Quick one: viability, T/C of C=CC(=O)N1CCN(c2nc(=O)n(-c3c(C)ccnc3C(C)C)c3nc(-c4c(O)cccc4F)c(F)cc23)C(C)C1 (configuration not stated) + CC(Nc1ccc2c(c1)OCCn1cc(N3C(=O)OCC3C(F)F)nc1-2)C(N)=O ?
### Response 105

### Prompt Reported viability, T/C, compound CC(=O)c1c(C)c2cnc(Nc3ccc(N4CCNCC4)cn3)nc2n(C2CCCC2)c1=O + COc1c(OCCCN2CCOCC2)ccc2c3n(c(=NC(=O)c4cnc(N)nc4)nc12)CCN3 : ____
### Response 98.8

### Prompt Item CNC(=O)c1ccc(N2C(=S)N(c3ccc(C#N)c(C(F)(F)F)c3)C(=O)C2(C)C)cc1F + COc1c(OCCCN2CCOCC2)ccc2c3n(c(=NC(=O)c4cnc(N)nc4)nc12)CCN3 has what recorded viability, T/C?
### Response 102

### Prompt Item Cn1nccc1Nc1nccc(-c2ccn(C(CO)c3ccc(Cl)c(F)c3)c(=O)c2)n1 (configuration not stated) + CC(Nc1ccc2c(c1)OCCn1cc(N3C(=O)OCC3C(F)F)nc1-2)C(N)=O has what recorded viability, T/C?
### Response 93.9

### Prompt viability, T/C lookup needed for CC1(C)CCC(Nc2ncc(C(F)(F)F)c(-c3c[nH]c4c(P(C)(C)=O)c(C#N)ccc34)n2)CN1 (configuration not stated) + COc1c(OCCCN2CCOCC2)ccc2c3n(c(=NC(=O)c4cnc(N)nc4)nc12)CCN3 , thanks.
### Response 90.8

### Prompt May I ask what viability, T/C has been recorded for CCN1CCN(Cc2ccc(Nc3ncc(F)c(-c4cc(F)c5nc(C)n(C(C)C)c5c4)n3)nc2)CC1 + CC(Nc1ccc2c(c1)OCCn1cc(N3C(=O)OCC3C(F)F)nc1-2)C(N)=O ?
### Response 114

### Prompt Looking for the measured viability, T/C of Cn1ncc(Cl)c1-c1cc(C(=O)NC(CN)Cc2cccc(F)c2)sc1Cl (configuration not stated) + COc1c(OCCCN2CCOCC2)ccc2c3n(c(=NC(=O)c4cnc(N)nc4)nc12)CCN3 , can you help?
### Response 97.6

### Prompt Dear colleague, I am looking for the recorded viability, T/C of the following compound: CC1(C)CCC(Nc2ncc(C(F)(F)F)c(-c3c[nH]c4c(P(C)(C)=O)c(C#N)ccc34)n2)CN1 (configuration not stated) + CC(Nc1ccc2c(c1)OCCn1cc(N3C(=O)OCC3C(F)F)nc1-2)C(N)=O
### Response 104

### Prompt Field request: viability, T/C | item: Cn1nccc1Nc1nccc(-c2ccn(C(CO)c3ccc(Cl)c(F)c3)c(=O)c2)n1 (configuration not stated) + COc1c(OCCCN2CCOCC2)ccc2c3n(c(=NC(=O)c4cnc(N)nc4)nc12)CCN3
### Response 112

### Prompt Please give the measured viability, T/C for this compound: Cn1ncnc1[C@H]1c2n[nH]c(=O)c3cc(F)cc(c23)N[C@@H]1c1ccc(F)cc1 + COc1c(OCCCN2CCOCC2)ccc2c3n(c(=NC(=O)c4cnc(N)nc4)nc12)CCN3
### Response 97.1

### Prompt Look up viability, T/C: CNC(=O)c1ccc(N2C(=S)N(c3ccc(C#N)c(C(F)(F)F)c3)C(=O)C2(C)C)cc1F + CC(Nc1ccc2c(c1)OCCn1cc(N3C(=O)OCC3C(F)F)nc1-2)C(N)=O
### Response 103

### Prompt Entry under review: CC(Cn1ccc(-c2ccc(C#N)c(Cl)c2)n1)NC(=O)c1cc(C(C)O)[nH]n1 (configuration not stated) + CC(Nc1ccc2c(c1)OCCn1cc(N3C(=O)OCC3C(F)F)nc1-2)C(N)=O . Reported viability, T/C?
### Response 93

### Prompt Fill in the blank: the reported viability, T/C of CCCS(=O)(=O)Nc1ccc(F)c(C(=O)c2c[nH]c3ncc(-c4ccc(Cl)cc4)cc23)c1F + COc1c(OCCCN2CCOCC2)ccc2c3n(c(=NC(=O)c4cnc(N)nc4)nc12)CCN3 is ____.
### Response 102

### Prompt Requested read-out: viability, T/C. Entry: C#Cc1c(F)ccc2cc(O)cc(-c3ncc4c(N5CC6CCC(C5)N6)nc(OCC56CCCN5CC(F)C6)nc4c3F)c12 (configuration not stated) + CC(Nc1ccc2c(c1)OCCn1cc(N3C(=O)OCC3C(F)F)nc1-2)C(N)=O
### Response 109

### Prompt Looking for the measured viability, T/C of CC(C)NCC(C(=O)N1CCN(c2ncnc3c2C(C)CC3O)CC1)c1ccc(Cl)cc1 (configuration not stated) + CC(Nc1ccc2c(c1)OCCn1cc(N3C(=O)OCC3C(F)F)nc1-2)C(N)=O , can you help?
### Response 98.3

### Prompt Fill blank: measured viability, T/C of the compound C=CC(=O)N1CCN(c2nc(=O)n(-c3c(C)ccnc3C(C)C)c3nc(-c4c(O)cccc4F)c(F)cc23)C(C)C1 (configuration not stated) + COc1c(OCCCN2CCOCC2)ccc2c3n(c(=NC(=O)c4cnc(N)nc4)nc12)CCN3 is ____.
### Response 93.1

### Prompt Entry under review: CC(Cn1ccc(-c2ccc(C#N)c(Cl)c2)n1)NC(=O)c1cc(C(C)O)[nH]n1 (configuration not stated) + COc1c(OCCCN2CCOCC2)ccc2c3n(c(=NC(=O)c4cnc(N)nc4)nc12)CCN3 . Reported viability, T/C?
### Response 101

### Prompt Would you kindly share the measured viability, T/C for Cn1ncnc1[C@H]1c2n[nH]c(=O)c3cc(F)cc(c23)N[C@@H]1c1ccc(F)cc1 + CC(Nc1ccc2c(c1)OCCn1cc(N3C(=O)OCC3C(F)F)nc1-2)C(N)=O ?
### Response 101

### Prompt Quick check: viability, T/C of CC(C)NCC(C(=O)N1CCN(c2ncnc3c2C(C)CC3O)CC1)c1ccc(Cl)cc1 (configuration not stated) + COc1c(OCCCN2CCOCC2)ccc2c3n(c(=NC(=O)c4cnc(N)nc4)nc12)CCN3 ?
### Response 109

### Prompt What measured viability, T/C goes with CCCS(=O)(=O)Nc1ccc(F)c(C(=O)c2c[nH]c3ncc(-c4ccc(Cl)cc4)cc23)c1F + CC(Nc1ccc2c(c1)OCCn1cc(N3C(=O)OCC3C(F)F)nc1-2)C(N)=O ?
### Response 100

### Prompt Given the entry CCN1CCN(Cc2ccc(Nc3ncc(F)c(-c4cc(F)c5nc(C)n(C(C)C)c5c4)n3)nc2)CC1 + COc1c(OCCCN2CCOCC2)ccc2c3n(c(=NC(=O)c4cnc(N)nc4)nc12)CCN3 , report its measured viability, T/C.
### Response 99.7
